# system.name: human KV7.2/KV7.3 (Homo sapiens (Human), UniProt O43525+O43526)
# test: Potassium flux assay (IPG-2 AM dye)
# assay.context: TREX HEK 293 or HEK 293 cells expressing human KV7.2/KV7.3; arithmetic mean values
pEC50: −log10 of the molar value.
Each record here notes measured pEC50.

CCCOc1ccc2c(Nc3ccc(Cl)nc3)nccc2c1
5.00 to 6.00
FC(F)(F)CNc1cnc(Nc2ccc(Cl)nc2)c2[nH]ccc12
5.00 to 6.00
Clc1ccc(Nc2nccc3cc(OCc4cncnc4)ccc23)cn1
> 6.00
Cn1ccnc1COc1ccc2c(Nc3ccc(Cl)nc3)nccc2c1
5.00 to 6.00
COc1ccc2c(Nc3ccc(Cl)nc3)ncc(OC)c2c1
4.52 to 5.00

Moving on to another compound below.
Incoming: Report pEC50 from human KV7.2/KV7.3 (Homo sapiens (Human), UniProt O43525+O43526) testing of CS(=O)(=Nc1ccc2c(Nc3ccc(Cl)nc3)nccc2c1)C1COC1 (centres unmarked) [Example 275]
Outgoing: 5.00 to 6.00

----------
Each record here notes measured pEC50.
# system.name: human KV7.2/KV7.3 (Homo sapiens (Human), UniProt O43525+O43526)
# test: Potassium flux assay (IPG-2 AM dye)
# Type: cell-based
# assay.context: TREX HEK 293 or HEK 293 cells expressing human KV7.2/KV7.3; arithmetic mean values
pEC50: −log10 of the molar value.

Incoming: Report pEC50 from human KV7.2/KV7.3 (Homo sapiens (Human), UniProt O43525+O43526) testing of N#CC(F)(COc1ccc2c(Nc3cnc(Cl)nc3)nccc2c1)C1CC1 (stereo not drawn)
Outgoing: > 6.00

Incoming: Report pEC50 from human KV7.2/KV7.3 (Homo sapiens (Human), UniProt O43525+O43526) testing of Clc1ncc(Nc2nccc3cc(OCc4cn[nH]c4)ccc23)cn1
Outgoing: > 6.00

Incoming: Report pEC50 from human KV7.2/KV7.3 (Homo sapiens (Human), UniProt O43525+O43526) testing of C[C@@H](COc1ccc2c(Nc3ccc(Cl)nc3)nccc2c1)c1cnn(C)c1
Outgoing: 5.00 to 6.00

Incoming: Report pEC50 from human KV7.2/KV7.3 (Homo sapiens (Human), UniProt O43525+O43526) testing of Clc1ccc(Nc2nccc3cc(OCc4cnn(Cc5ccccc5)c4)ccc23)cn1
Outgoing: 5.00 to 6.00

Incoming: Report pEC50 from human KV7.2/KV7.3 (Homo sapiens (Human), UniProt O43525+O43526) testing of Clc1ccc(Nc2nccc3cc(OCc4ccccn4)ccc23)cn1
Outgoing: 5.00 to 6.00

Incoming: Report pEC50 from human KV7.2/KV7.3 (Homo sapiens (Human), UniProt O43525+O43526) testing of C#CC1(COc2ccc3c(Nc4ccc(Cl)nc4)nccc3c2)CC1
Outgoing: > 6.00

----------
Each record here notes measured EC50.
# system.name: human KV7.2/KV7.3 (Homo sapiens (Human), UniProt O43525+O43526)
# test: Potassium flux assay (IPG-2 AM dye)
# assay.context: TREX HEK 293 or HEK 293 cells expressing human KV7.2/KV7.3; arithmetic mean values

Fc1ccc2c(Nc3cnc(Cl)nc3)nccc2c1
1000 to 10000 nM

Incoming: Supply measured EC50 of Clc1ccc(Nc2nccc3cc(OCCN4CC5(COC5)C4)ccc23)cn1 in your reply.
Outgoing: ≥ 30000 nM

Incoming: Supply measured EC50 of Cc1ncc(Nc2nccc3cc(OCC4(F)COC4)ccc23)cn1 in your reply.
Outgoing: 1000 to 10000 nM

Incoming: Supply measured EC50 of Cn1nccc1-c1ccc2c(Nc3ccc(Cl)nc3)nccc2c1 in your reply.
Outgoing: 1000 to 10000 nM

Incoming: Supply measured EC50 of Cc1ncc(Nc2nccc3cc(OCC4CC4)cnc23)cn1 in your reply.
Outgoing: 1000 to 10000 nM

Incoming: Supply measured EC50 of CS(=O)(=Nc1ccc2c(Nc3ccc(Cl)nc3)nccc2c1)C1CC1 (stereo not drawn) [Example 268] in your reply.
Outgoing: < 1000 nM

----------
Each record here notes measured EC50.
# system.name: human KV7.2/KV7.3 (Homo sapiens (Human), UniProt O43525+O43526)
# test: Potassium flux assay (IPG-2 AM dye)
# assay.context: TREX HEK 293 or HEK 293 cells expressing human KV7.2/KV7.3; arithmetic mean values
Counter-ions that a name gives are not always drawn.

Consider the reported EC50 for these compounds:
FC1(F)CCC(Oc2ccc3c(Nc4ccc(Cl)nc4)nccc3c2)CC1
< 1000 nM
Cn1cc(CCOc2ccc3c(Nc4ccc(Cl)nc4)nccc3c2)cn1
1000 to 10000 nM
CC(=O)N[C@H]1CC[C@@H](Oc2ccc3c(Nc4ccc(Cl)nc4)nccc3c2)CC1
< 1000 nM
CN1CC(F)(COc2ccc3c(Nc4ccc(Cl)nc4)nccc3c2)C1
10000 to 30000 nM

Incoming: Report EC50 from human KV7.2/KV7.3 (Homo sapiens (Human), UniProt O43525+O43526) testing of Clc1ccc(Nc2nccc3cc(O[C@H]4CCOC4)ccc23)cn1 [Example 298, trifluoroacetate]
Outgoing: 1000 to 10000 nM

Incoming: Report EC50 from human KV7.2/KV7.3 (Homo sapiens (Human), UniProt O43525+O43526) testing of Cn1cnnc1COc1ccc2c(Nc3ccc(Cl)nc3)nccc2c1
Outgoing: 1000 to 10000 nM

----------
Each record here notes measured pEC50.
# system.name: human KV7.2/KV7.3 (Homo sapiens (Human), UniProt O43525+O43526)
# test: Potassium flux assay (IPG-2 AM dye)
# assay.context: TREX HEK 293 or HEK 293 cells expressing human KV7.2/KV7.3; arithmetic mean values
pEC50: −log10 of the molar value. Counter-ions that a name gives are not always drawn.

Consider the reported pEC50 for these compounds:
CC(F)(F)C1(COc2ccc3c(Nc4cnc(Cl)nc4)nccc3c2)COC1
> 6.00
Clc1ccc(Nc2nccc3cccnc23)cn1 [Example 31, formate]
5.00 to 6.00
Clc1ccc(Nc2nccc3cc(OCc4ccon4)ccc23)cn1
> 6.00
N#CC1(COc2ccc3c(Nc4ccc(Cl)nc4)nccc3c2)CCOCC1
> 6.00
O=C(N[C@H]1CCC[C@@H](Oc2ccc3c(Nc4cnc(Cl)nc4)nccc3c2)C1)C(F)(F)F
> 6.00
Fc1cccc2c(Nc3ccc(Cl)nc3)nccc12
5.00 to 6.00
Clc1ccc(Nc2nccc3cc(Oc4cn[nH]c4)ccc23)cn1
5.00 to 6.00
Clc1ccc(Nc2nccc3ccoc23)cn1 [Example 16, formate]
5.00 to 6.00
O[C@H]1CC[C@@H](Oc2ccc3c(Nc4ccc(Cl)nc4)nccc3c2)CC1
> 6.00
N#C[C@H]1CCC[C@H](Oc2ccc3c(Nc4ccc(Cl)nc4)nccc3c2)C1
5.00 to 6.00

Moving on to another compound below.
Incoming: Supply measured pEC50 of Cc1ncsc1C(=O)N[C@H]1CC[C@@H](Oc2ccc3c(Nc4ccc(Cl)nc4)nccc3c2)CC1 in your reply.
Outgoing: 5.00 to 6.00

----------
Each record here notes measured EC50.
# system.name: human KV7.2/KV7.3 (Homo sapiens (Human), UniProt O43525+O43526)
# test: Potassium flux assay (IPG-2 AM dye)
# assay.context: TREX HEK 293 or HEK 293 cells expressing human KV7.2/KV7.3; arithmetic mean values
# From the text: This potassium flux assay employs the cell-permeable, potassium-sensitive dye, IPG-2 AM, to quantify potassium ion flux through potassium channels. In general, TREX HEK 293 or HEK 293 cells were stably transfected with either an inducible or non-inducible expression vector containing the full-length cDNA coding for the desired human KV7.2/KV7.3 or in combination with another full-length cDNA for a second desired human KV7 potassium channel. […]
Counter-ions that a name gives are not always drawn.

Consider the reported EC50 for these molecules:
Clc1ccc(Nc2nccc3cc(OCC4COCCO4)ccc23)cn1 (stereo not drawn) [Example 154]
< 1000 nM
Cc1ncc(Nc2nccc3cc(OCc4cnn(C)c4)ccc23)cc1O [Example 324]
1000 to 10000 nM
N#CC1(COc2ccc3c(Nc4ccc(Cl)nc4)nccc3c2)COC1 [Example 85]
< 1000 nM

Incoming: Supply measured EC50 of COc1ncc(Nc2nccc3cc(OCc4cn[nH]c4C)ccc23)cn1 [Example 388] in your reply.
Outgoing: < 1000 nM

Incoming: Supply measured EC50 of Cc1ncc(Nc2nccc3cc(OCC4CC4)ccc23)cn1 [Example 24] in your reply.
Outgoing: 1000 to 10000 nM

Incoming: Supply measured EC50 of CN1C(=O)CCC1COc1ccc2c(Nc3ccc(Cl)nc3)nccc2c1 (stereo not drawn) [Example 53] in your reply.
Outgoing: 1000 to 10000 nM

Incoming: Supply measured EC50 of Clc1ccc(Nc2nccc3cc(OCc4cnc(Cc5cccnc5)o4)ccc23)cn1 [Example 158] in your reply.
Outgoing: 1000 to 10000 nM

Incoming: Supply measured EC50 of Clc1ccc(Nc2nccc3occc23)cn1 [Example 30, formate] in your reply.
Outgoing: 1000 to 10000 nM

Incoming: Supply measured EC50 of Clc1ccc(Nc2nccc3scnc23)cn1 [Example 13] in your reply.
Outgoing: 1000 to 10000 nM

Incoming: Supply measured EC50 of CS(=O)(=Nc1ccc2c(Nc3ccc(Cl)nc3)nccc2c1)C1COC1 (stereo in doubt) [Example 276] in your reply.
Outgoing: 1000 to 10000 nM

Incoming: Supply measured EC50 of COc1cnc2c(Nc3ccc(Cl)nc3)nccc2c1 [Example 399] in your reply.
Outgoing: 1000 to 10000 nM

Incoming: Supply measured EC50 of CC1(COc2cnc3c(Nc4ccc(Cl)nc4)nccc3c2)COC1 [Example 259] in your reply.
Outgoing: 1000 to 10000 nM

Incoming: Supply measured EC50 of COc1ncc(Nc2nccc3cc(OCC4(C)COC4)ccc23)cn1 [Example 370] in your reply.
Outgoing: < 1000 nM

Incoming: Supply measured EC50 of Clc1ccc(Nc2nccc3cc(OCc4c[nH]nc4Cl)ccc23)cn1 [Example 337] in your reply.
Outgoing: 1000 to 10000 nM

Incoming: Supply measured EC50 of Fc1c(NCC2CC2)ccc2c(Nc3ccc(Cl)nc3)nccc12 [Example 232] in your reply.
Outgoing: 1000 to 10000 nM

Incoming: Supply measured EC50 of COCCS(=O)(=Nc1ccc2c(Nc3ccc(Cl)nc3)nccc2c1)C1CC1 (stereo not drawn) [Example 271] in your reply.
Outgoing: 1000 to 10000 nM

Incoming: Supply measured EC50 of COCCOc1ccc2c(Nc3cnc(C)nc3)nccc2c1 [Example 37] in your reply.
Outgoing: 10000 to 30000 nM

Incoming: Supply measured EC50 of FC1(COc2ccc3c(Nc4cncc(Cl)c4)nccc3c2)CC1 [Example 48] in your reply.
Outgoing: 1000 to 10000 nM

Numbers sourced from patent US20240101531A1.
